These entries and their values trace back to PubChem BioAssay (NCI).

# System: U251 CNS
# testDescription: NCI tumour cell line growth inhibition, 48 h
metricName: TGI (µM)
Please respond with the number in µM and leave the unit unwritten.

Q. For the compound CO/N=C(\C)c1cccc(Nc2cc(-c3ccccc3)nc3c(O)cccc23)c1 , what TGI is on record?
A. 16.7

Q. Now consider CCOC(=O)C1=C(C)NC2SC(=O)/C(=C\c3ccccc3O)N2C1c1ccccc1 (stereo unspecified) .
A. 49.6

Q. Another compound: C/C(=N\N=C(\[Se])N1CCN(c2ccccn2)CC1)c1ccccn1
A. 16.7

Q. And then Cc1ccc(C[P+]2(c3ccccc3)CCCCC2)cc1 , what is it?
A. 42.4

* * *

# Test system: MALME-3M melanoma
# testDescription: NCI tumour cell line growth inhibition, 48 h
Provide the recorded TGI for the entries that follow.
Express the result in µM but write the number alone.

Q. Need TGI of O=C(Nc1ccc(CN2CCOCC2)cc1)c1[nH]ncc1Nc1ncnc2sccc12 , thanks.
A. 8.61

Q. Also C/C(=C\C1=C(Cl)C(=O)c2ccccc2C1=O)C(=O)O ?
A. 40.2

Q. Same lookup for O=C1C2=Nc3ccccc3C(O)N2c2ccccc21 (centres undefined) , please.
A. 29.8

Q. Then what about the compound Oc1c(CN2CCCC2)cc(COCc2ccc(Br)cc2)c2cccnc12 ?
A. 5.18

* * *

Exercise: state measured TGI for each of the compounds provided.
# Tested on: MCF7 breast
# testDescription: NCI tumour cell line growth inhibition, 48 h

Q. Report TGI for COC(=O)Nc1nc2ccc(S(=O)(=O)n3nnc4ccccc43)cc2[nH]1 please.
A. > 100 µM

Q. Please answer likewise for C/C1=C/C2=CC(C)C[C@@H]2C(=O)[C@]2(C)C(=O)CC(C)(C)[C@H]2CC1=O (some centres undefined)
A. > 50 µM

Q. Subsequent entry: C=CCC(CC=O)(C(=O)OCC)C(=O)OCC
A. > 100 µM

Q. Next up: Cn1c(O)c(C(/C=C/c2ccccc2)=NCCN=C(/C=C/c2ccccc2)c2c(O)n(C)c(=O)n(C)c2=O)c(=O)n(C)c1=O
A. > 50 µM

Q. What do we get for O=C(c1ccc2ccccc2c1)N(Cc1cccnc1)C(=S)N(Cc1cccnc1)C(=O)c1ccc2ccccc2c1 ?
A. > 100 µM

Q. Thanks! And COC(=O)[C@H]1C[C@H]1NC(=O)C(CC(=O)OCc1ccccc1)NC(=O)OCc1ccccc1 (some centres undefined) ?
A. > 100 µM

Q. Cool, now N=c1nc2n(cc1F)[C@@H]1O[C@H](CO)[C@@H](O)[C@@H]1O2
A. > 100 µM

Q. // query: O=C(CCCN1CCC2(CC1)NC(=O)c1ccccc1O2)c1ccc(F)cc1
A. > 100 µM

Q. Please do the same for CC(=O)Nc1ccc(CNc2cc(=O)n(C)c(=O)[nH]2)cc1 as well.
A. > 100 µM

Q. Similarly, O=C(CCl)NC(Cc1ccc(F)cc1)C(=O)O (centres undefined) ?
A. > 100 µM

Q. Here is the next compound: O=P(NC12CC3CC(CC(C3)C1)C2)(N1CC1)N1CC1
A. > 100 µM

Q. Same thing, different compound: O=C(CSC(c1ccccc1)c1ccccc1)N/N=C/c1cccc(Cl)c1
A. 38.4 µM

Q. Let us now turn to CCOP(=O)(OCC)C(N)Cc1ccc(OC)c(OC)c1 (centres undefined)
A. > 100 µM

Q. Now try Cc1ccc2nc(-c3ccc(-n4c(C)nc(=O)c(-c5ccc(F)cc5)c4C)cc3)sc2c1 .
A. 34.7 µM

Q. Entry CN(C)CCNC(=O)Cn1cc([N+](=O)[O-])c(=O)c2ccccc21 please
A. > 100 µM

Q. Queued: CCCCCC[C@H]1CC(=O)C2CCCC[C@@]23CC[C@H](CCl)N13 (some centres undefined) (tested in a mixture with another compound)
A. 96.9 µM

Q. Same again, this time with Cc1cccc2c(N)c3cccc(C(=O)NCC[N+](C)(C)Cc4sccc4[N+](=O)[O-])c3nc12
A. 25.2 µM

Q. Input O=c1cc(N2CCNCC2)oc2c(-c3ccccc3)cccc12
A. > 100 µM

Q. Then this compound: O=C(O)c1ccc(-c2nc3ccc(Cl)cc3[nH]2)cc1
A. > 100 µM

* * *

Give measured TGI for each item. Keep answers brief.
# Tested on: NCI/ADR-RES ovarian
# testDescription: NCI tumour cell line growth inhibition, 48 h
Value expressed in µM; do not type the unit.

Q. Request the reported TGI associated with Cc1cccc(C(=O)/C=C/SC(=NC#N)SCc2ccccc2)c1
A. 64.5

Q. Then C=C1CCCCCCCCCCC12SCCC2CCCCSC (stereo unspecified) ?
A. 46.2

Q. Cool, now CCOC(=O)c1c2c(n(Cc3ccccc3)c1C)-c1ccccc1C(=O)C2=O
A. 27.4

Q. Note, next up: Oc1c(CN2CCCC2)cc(COCc2ccc(Br)cc2)c2cccnc12
A. 1.13

Q. Let us now turn to CN1CCN(Cc2ccc(NC(=O)c3cncc(C#Cc4cncc5ncccc45)c3)cc2C(F)(F)F)CC1
A. 18.9

* * *

For each record, write down the corresponding TGI.
# System: DU-145 prostate
# testDescription: NCI tumour cell line growth inhibition, 48 h

Q. Can you share its TGI? I mean this compound: COc1cc(C=C2N=C(c3ccccc3)N(n3c(-c4ccccc4)nc4ccccc4c3=O)C2=O)cc(OC)c1OC
A. 79.9 µM

Q. Query CN(C)c1ncnc2c1nnn2C1OC(CO)C(O)C1O (stereo unspecified) next
A. > 100 µM

Q. How about this compound: COc1ccc2c(c1)C(=O)c1c-2c(Nc2ccc(C(C)=O)cc2)nc2ccccc12
A. > 100 µM

Q. Now this one: CCCCOC(=O)NC(Nc1ccc(S(=O)(=O)Nc2ccc(OC)nn2)cc1)(C(F)(F)F)C(F)(F)F
A. > 100 µM

Q. Further, for CSCCC(N)P(C)(=O)O (stereo unspecified) ?
A. > 100 µM

Q. What about this compound? NCCCCN(CCCN)C(=O)c1ccccc1
A. > 100 µM

Q. Same lookup for Cc1nc2ccccc2c(=O)n1NC(=O)c1ccc([N+](=O)[O-])cc1 , please.
A. > 100 µM

Q. Lookup C=CC(C)(O)/C=C/C=C(\C)C(CC1OC1(C)C)OC(=O)/C(C)=C\C (stereo unspecified)
A. > 100 µM

Q. Can you handle CCN1C(=O)NC(=O)C(C)(N2C(=O)c3c(F)c(F)c(F)c(F)c3C2=O)C1=O (stereo unspecified) next?
A. 11.6 µM

Q. Then this compound: O=C([O][Hg][CH2]C1COC([CH2][Hg][O]C(=O)c2ccccc2)CO1)c1ccccc1 (stereo unspecified)
A. 33 µM

Q. Try this compound too: COc1cc2nccc(Oc3ccc(NC(=O)C4(C(=O)Nc5ccc(F)cc5)CC4)cc3)c2cc1Oc1ccc(N)cn1
A. > 100 µM

Q. Likewise for CC(=O)OC(C)c1cc2c(s1)C(=O)c1scc(C(C)OC(C)=O)c1C2=O (stereo unspecified) ?
A. 0.317 µM

Q. Query CC1CCN(CCCCCOc2ccc3oc4cc(Cl)ccc4c(=O)c3c2)CC1 next
A. 13.9 µM

Q. Now this one: CCOC(=O)CC1(O)CCCCC1(Sc1ccc(C)cc1)Sc1ccc(C)cc1 (stereo unspecified)
A. > 100 µM

Q. Same read-out for Cc1cccc(C(=O)/C=C/SC(=NC#N)SCc2ccccc2)c1 ?
A. 46.4 µM

Q. Query CN(C)c1ccc(/C=C(\C#N)c2nc3ccccc3n2C)cc1 next
A. 13.1 µM

Q. Repeat for the following compound: O=C(O)c1ccccc1CC1Cc2ccc3c(c2C1=O)CCC3 (stereo unspecified)
A. > 100 µM

Q. Please give the result for COC(=O)Nc1nc2ccc(S(=O)(=O)n3nnc4ccccc43)cc2[nH]1 too.
A. > 100 µM

Q. Let us now turn to O=C(CN1CCN(c2ccc(Cl)cc2)CC1)N1CCN(c2nnc(-c3ccc(Cl)cc3)c(-c3ccc(Cl)cc3)n2)CC1
A. > 100 µM

Q. Same for O=C1c2ccccc2C(=Cc2ccccc2)c2ccccc21
A. 6.94 µM

Q. Also C=CC(C=O)C1(O)CCOC(=O)/C1=C\N (stereo unspecified) , if possible.
A. > 100 µM

Q. Also CCn1c(-c2ccc(F)cc2)nc2c1C(=O)c1ccccc1C2=O , if possible.
A. > 100 µM

Q. Another compound: O=C(O)CCC(=O)c1ccc2ccc3cccc4ccc1c2c34
A. > 100 µM

Q. Quick one: CC(C)(C)c1[nH]cnc1/C=c1\[nH]c(=O)/c(=C/c2ccccc2)[nH]c1=O
A. 31.3 µM

Q. And what about the compound Cc1cc2c(cc1C)[n+](=O)c(C#N)c(Cl)n2[O-] ?
A. 43.4 µM

Q. Next entry: CC(=O)O[C@H]1CC[C@@]2(C)C(=CC[C@@H]3[C@@H]2CC[C@]2(C)Nc4c(cnn4S(C)(=O)=O)C[C@@H]32)C1
A. > 100 µM

Q. Now the same for COc1ccc(OC)c(C23CCCC(C2)N(C)CC3)c1 (stereo unspecified)
A. 91.9 µM

Q. Item: CCOC(=O)C1=C(C)OC(=O)[C@@]2(OC)C=C(Cl)[C@@]12C
A. > 100 µM

Q. Entry CC(=O)OCC(=O)O[C@@H]1C[C@]2(C(C)C)O[C@@]1(C)[C@@H]1CC[C@@H](C)[C@H]1[C@@H]2OC(=O)/C=C/c1ccccc1 please
A. 40.6 µM

Q. Same question for O=C(NNc1ccnc2cc(Cl)ccc12)/C(=C\c1ccccc1Cl)NC(=O)c1ccccc1 please.
A. > 100 µM

Q. Moving on to c1ccc(C2SCc3nc4cc5ccccc5cc4n32)cc1 (stereo unspecified)
A. > 100 µM

Q. Likewise for O=C(Nc1ccc(CN2CCOCC2)cc1)c1[nH]ncc1Nc1ncnc2sccc12 ?
A. 15.5 µM

Q. Next compound: Cc1cc(C2=NNC(=O)Cc3cc4c(cc32)OCCO4)cc(C)c1N
A. > 100 µM

Q. Repeat for the following compound: COC(=O)[C@]12CSC[C@H]1C[C@H](c1ccccc1OC)N2
A. > 100 µM

Q. Next entry: O=c1[nH]c(=O)n(C2OC(CO)C(O)C2O)c2ccsc12 (stereo unspecified)
A. > 100 µM

Q. # iterate: C=CC[P+](c1ccccc1)(c1ccccc1)c1ccccc1
A. > 100 µM
